H3 receptor (Cavia porcellus) measurements of pKi, listed per entry.
Sequence (Q9JI35 whole entry): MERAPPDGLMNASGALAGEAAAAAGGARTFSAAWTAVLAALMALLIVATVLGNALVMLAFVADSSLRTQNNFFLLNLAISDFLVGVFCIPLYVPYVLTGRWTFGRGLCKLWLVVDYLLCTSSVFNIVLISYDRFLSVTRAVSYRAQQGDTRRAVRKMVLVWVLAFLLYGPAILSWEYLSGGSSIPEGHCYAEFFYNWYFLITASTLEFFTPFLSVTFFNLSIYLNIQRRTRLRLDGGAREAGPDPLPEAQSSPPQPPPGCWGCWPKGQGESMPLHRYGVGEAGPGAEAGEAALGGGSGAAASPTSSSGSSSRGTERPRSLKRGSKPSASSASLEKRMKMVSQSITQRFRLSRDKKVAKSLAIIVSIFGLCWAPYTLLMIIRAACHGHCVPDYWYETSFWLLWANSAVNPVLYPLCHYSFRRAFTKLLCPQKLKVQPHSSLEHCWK
pKi: −log10 of the molar value.
readout_type: pKi

[[record]]
compound = "Cc1ccccc1C(=O)N1CCC(C2CCN(Cc3ccc(S(=O)(=O)c4ccc5c(c4)OCO5)cc3)CC2)CC1 [Compound 6]"
readout_type = "pKi"
experimental_value = 6.80

[[record]]
compound = "CCN(CC)CCOc1ccc(CN2CCC(C3CCN(Cc4ccc(S(=O)(=O)c5ccc6c(c5)OCO6)cc4)CC3)CC2)cc1 [Compound 7]"
readout_type = "pKi"
experimental_value = 7.66

[[record]]
compound = "CCN(CC)CCOc1ccc(CN2CCC(N3CCC(C4(c5ccc(S(=O)(=O)c6ccc7c(c6)OCO7)cc5)OCCO4)CC3)CC2)cc1 [Compound 14]"
readout_type = "pKi"
experimental_value = 8.70

[[record]]
compound = "CCN(CC)CCOc1ccc(CN2CCC(C3CCN(Cc4ccc(C(=O)NC(C)C)cc4)CC3)CC2)cc1 [Compound 1]"
readout_type = "pKi"
experimental_value = 7.74

[[record]]
compound = "CCCCOc1ccc(CN2CCC(N3CCC(C(=O)c4ccc(S(=O)(=O)c5ccc6c(c5)OCO6)cc4)CC3)CC2)cc1 [Compound 12]"
readout_type = "pKi"
experimental_value = 6.77


====

Protein target, amino acids: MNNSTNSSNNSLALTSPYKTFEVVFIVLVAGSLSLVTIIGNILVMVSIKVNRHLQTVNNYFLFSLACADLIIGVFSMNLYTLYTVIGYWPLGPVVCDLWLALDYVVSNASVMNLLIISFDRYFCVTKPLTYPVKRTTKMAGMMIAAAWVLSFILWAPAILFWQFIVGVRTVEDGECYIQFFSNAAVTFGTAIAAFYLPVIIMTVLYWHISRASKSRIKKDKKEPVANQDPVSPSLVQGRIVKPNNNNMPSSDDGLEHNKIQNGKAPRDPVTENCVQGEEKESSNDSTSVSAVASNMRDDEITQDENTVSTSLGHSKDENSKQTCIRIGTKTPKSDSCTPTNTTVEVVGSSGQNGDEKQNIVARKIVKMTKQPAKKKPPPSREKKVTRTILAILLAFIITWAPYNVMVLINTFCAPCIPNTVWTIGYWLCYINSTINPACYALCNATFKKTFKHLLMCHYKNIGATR
pKi: −log10 of the molar value.
readout_type: pKi

[[record]]
test_smiles = "O=C(NCC1CC1)c1ccc(CN2CCC(C3CCN(Cc4ccc(S(=O)(=O)c5ccc6c(c5)OCO6)cc4)CC3)CC2)cc1"
experimental_value = 9.66

[[record]]
test_smiles = "CN(C)CCCOc1ccc(CN2CCC(N3CCC(C4(c5ccc(S(=O)(=O)c6ccc7c(c6)OCO7)cc5)OCCO4)CC3)CC2)cc1"
experimental_value = 9.10

[[record]]
test_smiles = "c1ccc(CN2CCC(C3CCN(Cc4ccccc4)CC3)CC2)cc1"
experimental_value = 8.47

[[record]]
test_smiles = "Cc1ccccc1C(=O)N1CCC(C2CCN(Cc3ccc(S(=O)(=O)c4ccc5c(c4)OCO5)cc3)CC2)CC1"
experimental_value = 8.92

[[record]]
test_smiles = "CCN(CC)CCOc1ccc(CN2CCC(C3CCN(Cc4ccc(S(=O)(=O)c5ccc6c(c5)OCO6)cc4)CC3)CC2)cc1"
experimental_value = 10.15

[[record]]
test_smiles = "CN(C)CCCOc1ccc(CN2CCC(N3CCC(C(=O)c4ccc(S(=O)(=O)c5ccc6c(c5)OCO6)cc4)CC3)CC2)cc1"
experimental_value = 10.72

[[record]]
test_smiles = "O=C(NCC1CC1)c1ccc(CN2CCC(C3CCN(Cc4ccc(C(=O)NCC5CC5)cc4)CC3)CC2)cc1"
experimental_value = 9.90

[[record]]
test_smiles = "CC(C)(C)OC(=O)N1CCC(C2CCN(Cc3ccc(S(=O)(=O)c4ccc5c(c4)OCO5)cc3)CC2)CC1"
experimental_value = 8.59

